Recorded values, source patent US20100137206A1.

Tested on: B16-F10 cells
Test: MTT cytotoxicity of DOX-containing micelles
Assay type: cell-based
Conditions: 48 h incubation; read-out: IC50 (μM) of DOX equivalent
Protocol: Briefly, 4000 cells were plated in 96-well plates and incubated for 24 h to allow the cells to attach. […] Living cells metabolize MTT to a dark formazan dye. The cell culture media was removed by aspiration and replaced with 200 μL DMSO. The absorbance was measured spectrophotometrically using a microplate reader at dual wavelengths of 570 nm and 650 nm. The data reported represent the means of triplicate measurement.
METRIC_NAME: IC50 (µM)
Numbers only, in µM.

Request the reported IC50 associated with COc1cccc2c1C(=O)c1c(O)c3c(c(O)c1C2=O)C[C@@](O)(C(=O)CO)C[C@@H]3O[C@H]1C[C@H](N)[C@H](O)[C@H](C)O1 [Free DOX, doxorubicin, reference compound]
0.204
